Provide the reported % PHAKPA (F129L) Disease level P2 at 16 ppm of each item.
- Test system: Phakopsora pachyrhizi (F129L)
- Test: Protective control of soybean rust on soybeans (PHAKPA P2)
- Assay type: in vivo
- Particulars: protective P2, 16 ppm, soybean rust F129L
Express your answer in %, writing the number without its unit.

IN: Need % PHAKPA (F129L) Disease level P2 at 16 ppm of CO/N=C(/C(=O)OC)c1cccc(C)c1CO/N=C(\CC(F)(F)F)c1cccc(C(F)(F)F)c1 , thanks.
OUT: 90

IN: Need % PHAKPA (F129L) Disease level P2 at 16 ppm of CO/N=C(/C(=O)OC)c1cccc(C)c1CO/N=C(\C)c1cc(C)ccc1C , thanks.
OUT: 32

IN: Need % PHAKPA (F129L) Disease level P2 at 16 ppm of CO/N=C(/C(=O)OC)c1cccc(C)c1CO/N=C(\C)c1c(C)cccc1F , thanks.
OUT: 50

IN: Need % PHAKPA (F129L) Disease level P2 at 16 ppm of CNC(=O)/C(=N/OC)c1cccc(C)c1CO/N=C(\C)c1cccc(Br)c1 , thanks.
OUT: 0

IN: Need % PHAKPA (F129L) Disease level P2 at 16 ppm of CO/N=C(/C(=O)OC)c1cccc(C)c1CO/N=C(\C)c1ccc(C)c(Cl)c1 , thanks.
OUT: 1

IN: Need % PHAKPA (F129L) Disease level P2 at 16 ppm of C#Cc1cc(F)c(F)c(/C(C)=N/OCc2c(C)cccc2/C(=N\OC)C(=O)OC)c1 , thanks.
OUT: 10

IN: Need % PHAKPA (F129L) Disease level P2 at 16 ppm of CO/N=C(/C(=O)OC)c1cccc(C)c1CO/N=C(\C)c1c(F)cccc1Cl , thanks.
OUT: 30

IN: Need % PHAKPA (F129L) Disease level P2 at 16 ppm of CNC(=O)/C(=N/OC)c1cccc(C)c1CO/N=C(\C)c1ccccc1OC(F)(F)F , thanks.
OUT: 4

====

- Test system: Phakopsora pachyrhizi (F129L)
- Test: Protective control of soybean rust on soybeans (PHAKPA P2)
- Format: in vivo
- Particulars: protective P2, 16 ppm, soybean rust F129L
Measurement kind: % PHAKPA (F129L) Disease level P2 at 16 ppm

IN: Need % PHAKPA (F129L) Disease level P2 at 16 ppm of CO/N=C(/C(=O)OC)c1cccc(C)c1CO/N=C(\C)c1cc(Br)ccc1F [compound 138] , thanks.
OUT: 2%

IN: Need % PHAKPA (F129L) Disease level P2 at 16 ppm of CO/N=C(/C(=O)OC)c1cccc(C)c1CO/N=C(\C)c1cccc(C(F)F)c1 [compound 19] , thanks.
OUT: 0%

IN: Need % PHAKPA (F129L) Disease level P2 at 16 ppm of CCc1cc(/C(C)=N/OCc2c(C)cccc2/C(=N\OC)C(=O)NC)cc(C(F)(F)F)c1 [compound 151] , thanks.
OUT: 3%

IN: Need % PHAKPA (F129L) Disease level P2 at 16 ppm of CO/N=C(/C(=O)OC)c1cccc(C)c1CO/N=C(/c1ccccc1)C(F)F [compound 72] , thanks.
OUT: 87%

IN: Need % PHAKPA (F129L) Disease level P2 at 16 ppm of C#Cc1cc(F)cc(/C(C)=N/OCc2c(C)cccc2/C(=N\OC)C(=O)NC)c1 [compound 55] , thanks.
OUT: 1%

IN: Need % PHAKPA (F129L) Disease level P2 at 16 ppm of CO/N=C(/C)c1ccccc1/C(C)=N/OCc1c(C)cccc1/C(=N\OC)C(=O)OC [compound 187] , thanks.
OUT: 100%

IN: Need % PHAKPA (F129L) Disease level P2 at 16 ppm of C#Cc1cccc(/C(C)=N/OCc2c(C)cccc2/C(=N\OC)C(=O)NC)c1 [compound 54] , thanks.
OUT: 1%

IN: Need % PHAKPA (F129L) Disease level P2 at 16 ppm of CNC(=O)/C(=N/OC)c1cccc(C)c1CO/N=C(\C)c1c(F)cccc1OC(F)(F)F [compound 325] , thanks.
OUT: 4%

IN: Need % PHAKPA (F129L) Disease level P2 at 16 ppm of CO/N=C(/C(=O)OC)c1cccc(C)c1CO/N=C(\C)c1ccccc1 [Ex. 30] , thanks.
OUT: 1%

IN: Need % PHAKPA (F129L) Disease level P2 at 16 ppm of CNC(=O)/C(=N/OC)c1cccc(C)c1CO/N=C(\C)c1cccc(F)c1C(F)(F)F [compound 326] , thanks.
OUT: 0%

IN: Need % PHAKPA (F129L) Disease level P2 at 16 ppm of CO/N=C(/C(=O)OC)c1cccc(C)c1CO/N=C(\C)c1cc(Br)cc(Br)c1 [compound 135] , thanks.
OUT: 1%

IN: Need % PHAKPA (F129L) Disease level P2 at 16 ppm of C#Cc1cccc(/C(C)=N/OCc2c(C)cccc2/C(=N\OC)C(=O)NC)c1F [compound 401] , thanks.
OUT: 5%

IN: Need % PHAKPA (F129L) Disease level P2 at 16 ppm of CNC(=O)/C(=N/OC)c1cccc(C)c1CO/N=C(\C)c1cccc(Cl)c1C(F)(F)F [compound 422] , thanks.
OUT: 0%

IN: Need % PHAKPA (F129L) Disease level P2 at 16 ppm of CO/N=C(/C(=O)OC)c1cccc(C)c1CO/N=C(\C)c1ccc(C)c(C)c1 [compound 137] , thanks.
OUT: 2%

IN: Need % PHAKPA (F129L) Disease level P2 at 16 ppm of CO/N=C(/C(=O)OC)c1cccc(C)c1CO/N=C(\C)c1ccc(-c2ccccc2)cc1C(F)(F)F [compound 414] , thanks.
OUT: 9%

IN: Need % PHAKPA (F129L) Disease level P2 at 16 ppm of CO/N=C(\C)c1ccc(/C(C)=N/OCc2c(C)cccc2/C(=N\OC)C(=O)OC)cc1 [Ex. 181] , thanks.
OUT: 11%

IN: Need % PHAKPA (F129L) Disease level P2 at 16 ppm of CO/N=C(/C(=O)OC)c1cccc(C)c1CO/N=C(\C)c1cc(Cl)c(F)c(Cl)c1 [compound 246] , thanks.
OUT: 15%

IN: Need % PHAKPA (F129L) Disease level P2 at 16 ppm of CCc1ccc(/C(C)=N/OCc2c(C)cccc2/C(=N\OC)C(=O)OC)cc1 [compound 183] , thanks.
OUT: 0%

IN: Need % PHAKPA (F129L) Disease level P2 at 16 ppm of CNC(=O)/C(=N/OC)c1cccc(C)c1CO/N=C(\C)c1c(Cl)ccc(F)c1OC(F)(F)F [compound 440] , thanks.
OUT: 23%

IN: Need % PHAKPA (F129L) Disease level P2 at 16 ppm of CNC(=O)/C(=N/OC)c1cccc(C)c1CO/N=C(\C)c1cc(Cl)cc(Cl)c1 [Ex. 4] , thanks.
OUT: 0%

IN: Need % PHAKPA (F129L) Disease level P2 at 16 ppm of CNC(=O)/C(=N/OC)c1cccc(C)c1CO/N=C(\C)c1c(Cl)cc(Cl)cc1OC(F)(F)F [compound 428] , thanks.
OUT: 11%

IN: Need % PHAKPA (F129L) Disease level P2 at 16 ppm of CNC(=O)/C(=N/OC)c1cccc(C)c1CO/N=C(\C)c1ccc(Br)cc1 [compound 168] , thanks.
OUT: 0%

IN: Need % PHAKPA (F129L) Disease level P2 at 16 ppm of CNC(=O)/C(=N/OC)c1cccc(C)c1CO/N=C(\C)c1ccccc1C1CC1 [compound 219] , thanks.
OUT: 8%

IN: Need % PHAKPA (F129L) Disease level P2 at 16 ppm of CNC(=O)/C(=N/OC)c1cccc(C)c1CO/N=C(\C)c1ccc(OC(F)(F)F)cc1C [compound 261] , thanks.
OUT: 9%

IN: Need % PHAKPA (F129L) Disease level P2 at 16 ppm of CO/N=C(/C(=O)OC)c1cccc(C)c1CO/N=C(\C)c1cccc(OC(F)F)c1 [compound 80] , thanks.
OUT: 10%

IN: Need % PHAKPA (F129L) Disease level P2 at 16 ppm of CNC(=O)/C(=N/OC)c1cccc(C)c1CO/N=C(\C)c1ccc(/C(C)=N/OC)cc1 [compound 182] , thanks.
OUT: 0%

IN: Need % PHAKPA (F129L) Disease level P2 at 16 ppm of CO/N=C(/C(=O)OC)c1cccc(C)c1CO/N=C(\C)c1cc(F)cc(F)c1 [compound 87] , thanks.
OUT: 0%

IN: Need % PHAKPA (F129L) Disease level P2 at 16 ppm of CNC(=O)/C(=N/OC)c1cccc(C)c1CO/N=C(\C)c1ccc(F)c(F)c1OC(F)(F)F [compound 451] , thanks.
OUT: 0%

IN: Need % PHAKPA (F129L) Disease level P2 at 16 ppm of CO/N=C(/C(=O)OC)c1cccc(C)c1CO/N=C(\C)c1cccc(C2CC2(Cl)Cl)c1 (stereo not drawn) [compound 74] , thanks.
OUT: 6%

IN: Need % PHAKPA (F129L) Disease level P2 at 16 ppm of C#Cc1cc(/C(C)=N/OCc2c(C)cccc2/C(=N\OC)C(=O)OC)cc(C(F)(F)F)c1 [compound 143] , thanks.
OUT: 0%

IN: Need % PHAKPA (F129L) Disease level P2 at 16 ppm of CO/N=C(/C(=O)OC)c1cccc(C)c1CO/N=C(\C)c1cccc(Br)c1F [compound 134] , thanks.
OUT: 10%

IN: Need % PHAKPA (F129L) Disease level P2 at 16 ppm of CNC(=O)/C(=N/OC)c1cccc(C)c1CO/N=C(\C)c1c(F)ccc(F)c1C(F)(F)F [compound 359] , thanks.
OUT: 37%

IN: Need % PHAKPA (F129L) Disease level P2 at 16 ppm of CNC(=O)/C(=N/OC)c1cccc(C)c1CO/N=C(\C)c1ccc(F)cc1Cl [compound 262] , thanks.
OUT: 1%

From: patent US20230172204A1
